# Tested on: PXR homodimer (NR concentration 270 nM)
# ASSAY_PROCEDURE: PBM binding z-score (relative to random genomic background probes); higher = stronger binding; sequences stand for … in GC…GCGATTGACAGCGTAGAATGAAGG
Returns Satisfied if the recorded PBM binding z-score is greater than or equal to 0.3, and Not satisfied otherwise.

For orientation, consider the following solved cases.
Req: Can "CAAACTAGGTCATGAGGTCAAAGTCCGCTTCCCG" be said to have PBM binding z-score at or above 0.3?
Resp: Satisfied

Req: Same read-out for "TCTCGGAGGACACGAAAGGTCAGGGCTCGACATC" ?
Resp: Not satisfied

Req: Same read-out for "TTACCAAGGTGAAGGTTGTTGATCCCTCTGTAGA" ?
Resp: Not satisfied

Req: Same read-out for "TCATATAGGTAAAAGGGGAAAGTCGGTGTGGTAA" ?
Resp: Satisfied

Others:
Req: Can "CGCGAAAGGTCGGTTGAGGTGAGTATACGGATAA" be said to have PBM binding z-score at or above 0.3?
Resp: Not satisfied

Req: Same read-out for "ACTATTAGTTGAGACGAGGGAAACCGATAGGTTG" ?
Resp: Not satisfied

Req: Same read-out for "CCTGCTTGGTCATGGTCAGCTAATCTACAGTATG" ?
Resp: Not satisfied

Req: Same read-out for "CAAACCAGGTCACCGGAAGGTCAAAGTCCGCATG" ?
Resp: Satisfied

Req: Same read-out for "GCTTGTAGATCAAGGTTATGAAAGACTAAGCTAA" ?
Resp: Not satisfied

Req: Same read-out for "CCTATGAGTTGACCATAAGGGCAACCGAAGCTCG" ?
Resp: Satisfied

* * *

# System: PPARg:RXRa (NR concentration 180 nM, RXRa partner concentration 90 nM)
# ASSAY_PROCEDURE: PBM binding z-score (relative to random genomic background probes); higher = stronger binding; sequences stand for … in GC…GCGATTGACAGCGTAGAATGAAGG
Returns fulfilled if the recorded PBM binding z-score is greater than or equal to 2, and not fulfilled otherwise.

For orientation, consider the following solved cases.
Req: Can "GCATTTAGGTAATACAAGGTGAAAGTCCGATTGT" be said to have PBM binding z-score at or above 2?
Resp: not fulfilled

Req: Same read-out for "CCTCGGAGAACAACAGGAGGTCAGAGCTGCCAGA" ?
Resp: not fulfilled

Req: Same read-out for "TGAATTAGGTTATAAGATCAGGGAACGTTGCAAA" ?
Resp: fulfilled

Req: Same read-out for "GGAATGAGGGCAAGTTGATAGCAGAGTTTGATGG" ?
Resp: not fulfilled

Req: Same read-out for "TCTTGTAGATCAATGGTTAAGAAAGCCGAAGCCT" ?
Resp: not fulfilled

Req: Same read-out for "TCATATAGGTAAACAGGTGAAAATCCGTAAGTTA" ?
Resp: fulfilled

Req: Same read-out for "ACAATGAGGTTACCAAAGATCAGGGAAACGCTTG" ?
Resp: fulfilled

Others:
Req: Can "ATACCAAGGTGATCGCGAGGTCGTTGATACTAAC" be said to have PBM binding z-score at or above 2?
Resp: not fulfilled

* * *

# System: LXRb homodimer (NR concentration 270 nM)
# ASSAY_PROCEDURE: PBM binding z-score (relative to random genomic background probes); higher = stronger binding; sequences stand for … in GC…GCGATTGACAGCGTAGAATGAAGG
OBSERVED_PROPERTY: PBM binding z-score
Field format: numeric only.

// below: answered sequences
Req: Provide the documented PBM binding z-score with LXRb homodimer (NR concentration 270 nM) as the system for "CCAACTAGGTCATCCAGGACAGTGAATACATTGA"
Resp: 0.7

Req: Same read-out for "CCTACTGGCCCAAAAAGGTCATTGATGCCGATAA" ?
Resp: 1.04

Req: Same read-out for "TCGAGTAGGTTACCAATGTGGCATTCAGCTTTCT" ?
Resp: 0.104

Req: Same read-out for "CAAACTAGGTCACAGAAGTCAAAGTCCGTGCGTA" ?
Resp: 0.529

Req: Same read-out for "TCTCCTAGGTCAACGATGGTCAGCTAATCTGCTA" ?
Resp: 0.781

Req: Same read-out for "GCTATTAGTTGAAAGGGCAACCGGATGATTCTCG" ?
Resp: -0.334

Others:
Req: Provide the documented PBM binding z-score with LXRb homodimer (NR concentration 270 nM) as the system for "TATACAGGTTCAAAGGCCAGAGTACGAATGTCGA"
Resp: 1.19

Req: Same read-out for "ACTAGCAGGCCAAGGGGCACTCAAGATTAGTCCG" ?
Resp: -0.63

Req: Same read-out for "ACTCCGAGGACAAAGGTCAGAGCTACGCCAGTGA" ?
Resp: 0.764

Req: Same read-out for "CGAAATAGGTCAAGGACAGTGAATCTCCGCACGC" ?
Resp: 0.676

Req: Same read-out for "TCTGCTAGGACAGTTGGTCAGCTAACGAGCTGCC" ?
Resp: -0.315

Req: Same read-out for "TCTTGTAGATCAACAGGAGGCTAAGAAAGATCGA" ?
Resp: -0.588

Req: Same read-out for "CCTATTAGTTGACTATAAGGGCAACCGAAGCTCG" ?
Resp: 0.219

Req: Same read-out for "ACTGGCAGGCCAAGGGTCACTCAAGATTAGTCCG" ?
Resp: -0.732

Req: Same read-out for "TCTCGGAGGACACGAAAGGTCAGACCTCGACATC" ?
Resp: -0.0358

Req: Same read-out for "GCTGCTAGGTCAACTCATGGTCAGCTAAAGCTCG" ?
Resp: 0.577

Req: Same read-out for "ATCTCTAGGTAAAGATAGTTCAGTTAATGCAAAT" ?
Resp: 0.619

Req: Same read-out for "CAAACTAGGTCACAGAGGTCAAGGTCCGTGCGTA" ?
Resp: 1.33

Req: Same read-out for "CCTTACGGGTCACGAGGTTTTAGCACGACGAGCG" ?
Resp: -0.145

Req: Same read-out for "CGGACTAGGTCATTGACAGGACAGTGAATAGTAA" ?
Resp: -0.21

Req: Same read-out for "TAGCCTAGGTCATGCGGGCCAGTATGGTGTCGGC" ?
Resp: -0.233

Req: Same read-out for "AGGATGAGGTTATACGTAGATCAGGGAAGAAAGT" ?
Resp: 0.715

Req: Same read-out for "CCTAGCAGGCCAACCTGGGTCACTCAAGGCTTGA" ?
Resp: -1.09

Req: Same read-out for "TCACATAGGTAAAGGTGAAAGTCGAACGATATGA" ?
Resp: -0.00674

Req: Same read-out for "AGAATGAGGATATTAAGATCAGGGAATTGCGGTC" ?
Resp: -0.355

Req: Same read-out for "CCTACTTGGCCATCAGGTCATTGATATCAACGTT" ?
Resp: 0.454

Req: Same read-out for "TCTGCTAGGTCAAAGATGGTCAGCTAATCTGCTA" ?
Resp: 0.0441

Req: Same read-out for "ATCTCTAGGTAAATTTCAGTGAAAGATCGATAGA" ?
Resp: 0.934

* * *

# System: LXRa homodimer (NR concentration 270 nM)
# ASSAY_PROCEDURE: PBM binding z-score (relative to random genomic background probes); higher = stronger binding; sequences stand for … in GC…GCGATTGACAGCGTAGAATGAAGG
OBSERVED_PROPERTY: PBM binding z-score
Field format: numeric only.

Req: What value of PBM binding z-score has been recorded for this entry: "ATCTCTAGGTAAAGATAGTACAGTGAATGCAAAT"
Resp: 0.357

Others:
Req: What value of PBM binding z-score has been recorded for this entry: "ATCTCTAGGTAACCACGTTCAGTGAATGCCGAAC"
Resp: 0.335

Req: Same read-out for "ACTAGTTGGTCAGCTGAGGACACACACAATTCGG" ?
Resp: -0.165

* * *

As shown below, each of these sequences has a reported PBM binding z-score value.
# Tested on: PPARg:RXRa 30nM:10nM, anti-RXR (NR concentration 30 nM, RXRa partner concentration 10 nM)
# ASSAY_PROCEDURE: PBM binding z-score (relative to random genomic background probes); higher = stronger binding; sequences stand for … in GC…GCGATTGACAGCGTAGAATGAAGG

// below: answered sequences
Req: Provide the documented PBM binding z-score with PPARg:RXRa 30nM:10nM, anti-RXR (NR concentration 30 nM, RXRa partner concentration 10 nM) as the system for "CTACCAATGTGAACAAGGTCGTTGATTACTATTC"
Resp: 0.12

Req: Same read-out for "GCAGACAGGTGAAAAGCAGGTAACTCAGGGTGGC" ?
Resp: -0.488

Req: Same read-out for "GCAGACAGGTGAAACGCAGGTAAGTCAGGGTGGC" ?
Resp: -0.946

Others:
Req: Provide the documented PBM binding z-score with PPARg:RXRa 30nM:10nM, anti-RXR (NR concentration 30 nM, RXRa partner concentration 10 nM) as the system for "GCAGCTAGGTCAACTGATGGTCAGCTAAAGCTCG"
Resp: 0.457
